Measured INDUCTION OF 5-HT1A RELATED SYNDROME Total score values are reported for all entries that follow.
Test system: 5-HT1A receptors
Assay procedure: Behavioral syndrome: induction of 5-HT1A related syndrome
Assay type: in vivo, rat
Design: key: sum of symptom scores per rat within 50 min
Test conditions: dose 8 mg/kg/ip; within 50 min; mean ± s.e. from 4 rats
Give your answer as a number; write no unit.

Below, 3 compounds whose answers are already recorded.
O=c1[nH]c2ccccc2n1CCCCN1CCN(c2cccc(C(F)(F)F)c2)CC1 [Compound 8] ... 3.0
COc1ccccc1N1CCN(CCCCn2c(=O)[nH]c3ccccc32)CC1 [Compound 1] ... 7.3
Cn1c(=O)n(CCCCN2CCN(c3cccc(C(F)(F)F)c3)CC2)c2ccccc21 [Compound 9] ... 2.0

Could you now consider this next compound?
Provide INDUCTION OF 5-HT1A RELATED SYNDROME Total score value for the following compound: COc1ccc2[nH]c(=O)n(CCCCN3CCN(c4cccc(C(F)(F)F)c4)CC3)c2c1 [Compound 25] 2.0
